target: T1, recombinant CD28 antigen (extracellular domain, expressed in mammalian cells) (UniProt P10747 19-152, limits assumed); experiment: SPR (Biacore), CD28 ECD on CM5 chip, Fab as analyte at 50 ug/mL, 1:1 binding mass transfer model
T1 construct: extracellular domain; Immobilized on a CM5 chip by amine coupling; also called T-cell-specific surface glycoprotein CD28
Reported Property: pKd
Answers are plain numbers, as −log10 of the molar value.

Examples from the recorded data:
Binder: huCD28_v2 Fab (humanized) (Fab, V domains shown, not shown: small tags and cut ends, Humanized 15E8 Fab expressed in E. coli periplasm) VH: QVQLQESGPGLVKPSETLSLTCTVSGFSLTSYGVHWVRQPPGKGLEWIGVIWAGGSTNYNPSLKSRVTISKDTSKNQFSLKLSSVTAADTAVYYCARDKRAPGKLYYGYPDYWGQGTTLTVSS VL: DIVMTQSPDSLAVSLGERATINCKSSESVEYYVTSLLQWYQQKPGQPPKLLIYAASNRESGVPDRFSGSGSGTDFTLTISSLQAEDVAVYYCQQTRKVPSTFGGGTKLEIKR
pKd: 7.04

Binder: huCD28_v1 Fab (humanized) (Fab, V domains shown, not shown: small tags and cut ends, Humanized 15E8 Fab expressed in E. coli periplasm) VH: QVQLQESGPGLVKPSETLSLTCTVSGFSLTSYGVHWVRQPPGKGLEWLGVIWAGGSTNYNSALMSRLTISKDTSKNQVSLKLSSVTAADTAVYYCARDKRAPGKLYYGYPDYWGQGTTLTVSS VL: DIVMTQSPDSLAVSLGERATINCRASESVEYYVTSLMQWYQQKPGQPPKLLIYAASNVESGVPDRFSGSGSGTDFTLTISSLQAEDVAVYYCQQTRKVPSTFGGGTKLEIKR
pKd: 7.38

Binder: chCD28 Fab (chimeric) (Fab, V domains shown, Fab expressed in E. coli periplasm; not shown: Fabs were purified by IMAC) VH: QVQLKESGPGLVAPSQSLSITCTVSGFSLTSYGVHWVRQPPGKGLEWLGVIWAGGSTNYNSALMSRLSISKDNSKSQVFLKMNSLQTDDTAMYYCARDKRAPGKLYYGYPDYWGQGTTLTVSS VL: DIVLTQSPASLAVSLGQRATISCRASESVEYYVTSLMQWYQQKPGQPPKLLIYAASNVESGVPARFSGSGSGTDFSLNIHPVEEDDIAMYFCQQTRKVPSTFGGGTKLEIKR
pKd: 7.49

Continue with the next binder.
Request: Return reported pKd; argument: huCD28_v4 Fab (humanized) (Fab, V domains shown, not shown: small tags and cut ends, Humanized 15E8 Fab expressed in E. coli periplasm) VH: QVQLQESGPGLVKPSETLSLTCTVSGFSLTSYGVHWIRQPPGKGLEWLGVIWAGGSTNYNSSLKSRVTISKDTSKNQVSLKLSSVTAADTAVYYCARDKRAPGKLYYGYPDYWGQGTTLTVSS VL: DIVMTQSPDSLAVSLGERATINCRASESVEYYVTSLMQWYQQKPGQPPKLLIYAASNVESGVPARFSGSGSGTDFTLTISPLQAEDVAVYYCQQTRKVPSTFGGGTKLEIKR
Response: 7.28
